The origin of these recorded values is patent US20240140986A1.

- Tested on: Nrf2 / ARE-dependent luciferase in AREc32 reporter cell line
- EXPERIMENT_DESCRIPTION: AREc32 luciferase reporter activation (Nrf2 induction)
- Type: cell-based, human
- EXPERIMENTAL_PARAMETERS: Homo sapiens, Arec32; Table 3; oleanolic acid derivative analogs; read-out: Avg ARE EC-2X
Consider the following compounds and their measured EC (2-fold) readings.
Dear colleague, please return just the value in µM, with no unit written.

# example entries with known answers
>  <COMPOUND>
Cc1cn(C[C@]23CCC(C)(C)C[C@H]2[C@H]2C(=O)C=C4[C@@]5(C)C=C(C#N)C(=O)C(C)(C)[C@@H]5CC[C@@]4(C)[C@]2(C)CC3)nn1 [CC49, reference compound]

>  <TARGET_OF_ASSAY>
Nrf2 / ARE-dependent luciferase in AREc32 reporter cell line

>  <EC (2-fold) [µM]>
0.0138

$$$$
>  <COMPOUND>
CC1(C)CC[C@]2(c3nc(C4CC4)no3)CC[C@]3(C)[C@H](C(=O)C=C4[C@@]5(C)C=C(C#N)C(=O)C(C)(C)[C@@H]5CC[C@]43C)[C@@H]2C1 [CC2, reference compound]

>  <TARGET_OF_ASSAY>
Nrf2 / ARE-dependent luciferase in AREc32 reporter cell line

>  <EC (2-fold) [µM]>
0.0437

$$$$
>  <COMPOUND>
CNC(=O)N(C)C[C@]12CCC(C)(C)C[C@H]1[C@H]1C(=O)C=C3[C@@]4(C)C=C(C#N)C(=O)C(C)(C)[C@@H]4CC[C@@]3(C)[C@]1(C)CC2 [CC36, reference compound]

>  <TARGET_OF_ASSAY>
Nrf2 / ARE-dependent luciferase in AREc32 reporter cell line

>  <EC (2-fold) [µM]>
0.00723

$$$$

Fill blank: measured EC (2-fold) of the compound CN1CCN(C[C@]23CCC(C)(C)C[C@H]2[C@H]2C(=O)C=C4[C@@]5(C)C=C(C#N)C(=O)C(C)(C)[C@@H]5CC[C@@]4(C)[C@]2(C)CC3)C1=O [CC44, reference compound] is ____. 0.00607

Repeat with CC1(C)CC[C@]2(CN3CCOC3)CC[C@]3(C)[C@H](C(=O)C=C4[C@@]5(C)C=C(C#N)C(=O)C(C)(C)[C@@H]5CC[C@]43C)[C@@H]2C1 [CC42, reference compound] 0.122
